Reference source for all entries: patent US12492210B2

Measured IC50, listed per entry.
- tested-target: MAPK1(ERK2) enzyme (Homo sapiens, UniProt P28482)
- Sequence (P28482 whole entry): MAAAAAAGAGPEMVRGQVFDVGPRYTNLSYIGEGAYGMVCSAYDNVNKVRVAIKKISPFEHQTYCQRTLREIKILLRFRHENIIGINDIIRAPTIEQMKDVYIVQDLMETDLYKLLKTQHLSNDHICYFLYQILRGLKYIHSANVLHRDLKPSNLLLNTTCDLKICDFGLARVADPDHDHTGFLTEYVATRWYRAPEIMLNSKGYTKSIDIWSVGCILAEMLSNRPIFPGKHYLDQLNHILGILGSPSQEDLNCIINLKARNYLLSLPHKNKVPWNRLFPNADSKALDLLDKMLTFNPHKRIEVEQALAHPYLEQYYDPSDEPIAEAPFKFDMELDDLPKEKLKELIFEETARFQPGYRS

// below: answered compounds
| compound | IC50 |
| --- | --- |
| Cn1nccc1Nc1cc(-c2cc3n(c2)CC(C)(C)n2c(CCC(F)(F)F)nnc2-3)c(Cl)cn1 [Compound 247] | ≤ 5 nM |
| COC1(c2nnc3n2[C@@H](CF)Cn2cc(-c4cc(Nc5ccnn5C)ncc4Cl)cc2-3)CCC1 [Compound 64] | ≤ 5 nM |
| Cn1nccc1Nc1cc(-c2cc3n(c2)CCCn2c-3nnc2C2(C(F)(F)F)CCCC2)c(Cl)cn1 [Compound 31] | 5 to 10 nM |

Alright, here's another compound for you.
Could you share which IC50 value was measured for Cn1nccc1Nc1nccc(-c2cc3n(c2)C[C@H](CF)n2c-3nnc2C(F)(F)c2ccccc2F)n1 [Compound 100] ?
≤ 5 nM

---

- tested-target: MAPK1(ERK2) enzyme (Homo sapiens, UniProt P28482)
Catalogue of IC50 values

| chemical-string | IC50 |
| --- | --- |
| Cn1nccc1Nc1cc(-c2cc3n(c2)C[C@H](CF)n2c-3nnc2C(F)(F)c2ccccc2)c(Cl)cn1 | > 10 nM |
| Cc1cnc(Nc2ccnn2C)cc1-c1cc2n(c1)C[C@H](CF)n1c-2nnc1C(F)(F)C(F)F | ≤ 5 nM |
| Cc1cnc(Nc2ccnn2C)nc1-c1cc2n(c1)C[C@H](C(F)F)n1c-2nnc1C(F)(F)c1ccccc1F | 5 to 10 nM |
| Cn1nccc1Nc1ncc(F)c(-c2cc3n(c2)C[C@H](CF)n2c-3nnc2C(F)(F)c2ccccc2Cl)n1 | 5 to 10 nM |
| Cn1nccc1Nc1cc(-c2cc3n(c2)CCCn2c(Cn4cc(Cl)cn4)nnc2-3)c(Cl)cn1 | ≤ 5 nM |
| Cn1nccc1Nc1cc(-c2cc3n(c2)C[C@H](C(F)F)n2c-3nnc2C(F)(F)c2ccccc2F)c(F)cn1 | 5 to 10 nM |

Could you tell me which IC50 is on file for Cc1cnc(Nc2ccnn2C)nc1-c1cn2c(n1)-c1nnc(C(F)(F)c3ccccc3Cl)n1[C@H](C)C2 ?
≤ 5 nM

---

The next entries give measured IC50 for UniProtKB P28482.

The examples below pair each entry with its known result.
| chemical-string | readout-kind | result |
| --- | --- | --- |
| Cc1cnc(Nc2ccnn2C)cc1-c1cc2n(c1)C[C@H](C(F)F)n1c-2nnc1C(F)(F)c1ccccc1Cl | IC50 | > 10 nM |
| Cc1cnc(Nc2ccnn2C)nc1-c1cc2n(c1)C[C@H](C)n1c-2nnc1C(F)(F)c1c(F)cccc1F | IC50 | 5 to 10 nM |
| Cc1cnc(Nc2ccnn2C)cc1-c1cc2n(c1)C[C@H](CF)n1c-2nnc1C(F)(F)c1ccccc1F | IC50 | 5 to 10 nM |
| Cn1nccc1Nc1cc(-c2cc3n(c2)C[C@H](CF)n2c-3nnc2C(F)(F)n2cc(Cl)cn2)c(Cl)cn1 | IC50 | 5 to 10 nM |
| Cc1cnc(Nc2ccnn2CCCO)nc1-c1cc2n(c1)C[C@H](C)n1c-2nnc1C(F)(F)c1ccccc1F | IC50 | > 10 nM |

Field: IC50 (UniProtKB P28482). Entry: C[C@H]1Cn2cc(-c3cc(Nc4ccnn4C)ncc3F)cc2-c2nnc(C(F)(F)n3cc(Cl)cn3)n21
≤ 5 nM

Item: Cc1cnc(Nc2ccnn2C)nc1-c1cc2n(c1)C[C@H](C)n1c-2nnc1C(F)(F)c1ccccc1F Test system: UniProtKB P28482 Read-out: IC50 Value: ?
≤ 5 nM

---

Measurement record for MAPK1(ERK2) enzyme (Homo sapiens, UniProt P28482); quantity recorded: pIC50.
pIC50: −log10 of the molar value.

| compound | tested-target | pIC50 |
| --- | --- | --- |
| Cn1nccc1Nc1cc(-c2cc3n(c2)CC(CO)Cn2c-3nnc2C2(C(F)(F)F)CCC2)c(Cl)cn1 (stereo not shown) | MAPK1(ERK2) enzyme (Homo sapiens, UniProt P28482) | ≥ 8.30 |
| Cc1cnc(Nc2ccnn2C)cc1-c1cc2n(c1)C[C@H](C)n1c-2nnc1C(F)(F)c1ccccc1Cl | MAPK1(ERK2) enzyme (Homo sapiens, UniProt P28482) | < 8.00 |
| Cc1cnc(Nc2ccnn2C)nc1-c1cc2n(c1)C[C@H](C)n1c-2nnc1C(F)(F)c1ccccc1Cl | MAPK1(ERK2) enzyme (Homo sapiens, UniProt P28482) | 8.00 to 8.30 |
| Cn1nccc1Nc1cc(-c2cc3n(c2)C[C@H](CF)n2c-3nnc2C(F)(F)C(F)F)c(Cl)cn1 | MAPK1(ERK2) enzyme (Homo sapiens, UniProt P28482) | ≥ 8.30 |
| Cn1nccc1Nc1cc(-c2cc3n(c2)CC2(CCC2)n2c(CCC(F)(F)F)nnc2-3)c(Cl)cn1 | MAPK1(ERK2) enzyme (Homo sapiens, UniProt P28482) | ≥ 8.30 |
| Cn1nccc1Nc1cc(-c2cc3n(c2)C[C@H](CF)n2c-3nnc2C(F)(F)c2ccon2)c(Cl)cn1 | MAPK1(ERK2) enzyme (Homo sapiens, UniProt P28482) | 8.00 to 8.30 |

Shift focus to the following entry.
State its pIC50 on MAPK1(ERK2) enzyme (Homo sapiens, UniProt P28482): Cc1cnc(Nc2ccnn2C)nc1-c1cc2n(c1)CC1(CC1)n1c-2nnc1C1(C(F)(F)F)CCC1
≥ 8.30

---

pIC50: −log10 of the molar value.
Below are pIC50 values measured for MAPK1(ERK2) enzyme (Homo sapiens).

// below: answered molecules
| molecule | pIC50 |
| --- | --- |
| Cc1cc(Nc2ncc(C)c(-c3cc4n(c3)CCCn3c-4nnc3C3(C(F)(F)F)CCC3)n2)on1 [Compound 284] | ≥ 8.30 |
| Cc1cnc(Nc2ccnn2C)cc1-c1cc2n(c1)C[C@H](CF)n1c-2nnc1C(F)(F)c1noc2ccccc12 [Compound 197] | 8.00 to 8.30 |
| Cn1nccc1Nc1cc(-c2cc3n(c2)C[C@H](CF)n2c-3nnc2C(F)(F)C(F)F)c(F)cn1 [Compound 63] | ≥ 8.30 |

Fill in the blank: the reported pIC50 of Cn1nccc1Nc1nccc(-c2cc3c4nnc(COc5ccccc5Cl)n4ccn3c2)n1 [Compound 40] is ____.
≥ 8.30

// query pIC50 value for entry Cc1cnc(Nc2ccnn2C)nc1-c1cn2c(n1)-c1nnc(C(F)(F)c3ccccc3Cl)n1[C@H](CF)C2 [Compound 224]
≥ 8.30

Which pIC50 value is on record for Cc1cnc(Nc2ccnn2C)cc1-c1cc2n(c1)CC1(CCC1)n1c-2nnc1C(F)(F)C(F)F [Compound 242] ?
8.00 to 8.30

Item under review: C[C@H]1Cn2cc(-c3ccnc(Nc4ccnn4C(F)F)n3)nc2-c2nnc(C(F)(F)c3ccccc3Cl)n21 [Compound 227] . Reported pIC50?
≥ 8.30

Any idea what its pIC50 is? The molecule is Cc1cnc(Nc2ccnn2C)cc1-c1cc2n(c1)CC(F)(F)Cn1c-2nnc1C1(C(F)(F)F)CC1 [Compound 87]
≥ 8.30

---

- tested-target: MAPK1(ERK2) enzyme (Homo sapiens)
readout-kind: IC50

Solved entries:
| chemical-string | IC50 |
| --- | --- |
| Cn1nccc1Nc1ncc(F)c(-c2cc3n(c2)CCCn2c-3nnc2C2(C(F)(F)F)CCC2)n1 | ≤ 5 nM |
| C[C@H]1Cn2cc(-c3ccnc(Nc4ccnn4C)c3)cc2-c2nnc(C(F)(F)c3ccccc3Cl)n21 | 5 to 10 nM |
| Cn1nccc1Nc1cc(-c2cc3n(c2)CCCn2c(COC4(C(F)(F)F)CCC4)nnc2-3)c(Cl)cn1 | > 10 nM |
| Cn1nccc1Nc1cc(-c2cc3n(c2)C[C@H](CF)n2c-3nnc2C(F)(F)n2cc(F)cn2)c(Cl)cn1 | ≤ 5 nM |
| Cn1nccc1Nc1cc(-c2cc3n(c2)C[C@H](CF)n2c-3nnc2C(F)(F)c2ccccc2F)ccn1 | 5 to 10 nM |
| Cc1cnc(Nc2ccnn2C)cc1-c1cc2n(c1)C[C@H](CF)n1c-2nnc1C(F)(F)n1ccc(Cl)n1 | ≤ 5 nM |

Query IC50 on MAPK1(ERK2) enzyme (Homo sapiens) for Cc1cnc(Nc2ccnn2C)nc1-c1cc2n(c1)CCC(C)(C)n1c-2nnc1C1(C(F)(F)F)CC1
≤ 5 nM

---

Recorded measurements of pIC50, one per entry
- tested-target: MAPK1(ERK2) enzyme (Homo sapiens)
- Construct: purchased Invitrogen PV3313
- experiment-notes: Z-Lyte Kinase Assay of ERK2
- Assay type: biochemical
- measurement-parameters: read-out: Example 18 IC50
pIC50: −log10 of the molar value.

Before answering, review these 4 worked examples.
| compound | readout-kind | result |
| --- | --- | --- |
| Cn1nccc1Nc1cc(-c2cc3n(c2)CCCn2c(COc4ccccc4F)nnc2-3)c(Cl)cn1 | pIC50 | < 8.00 |
| Cc1cc(Nc2ncc(C)c(-c3cc4n(c3)CCCn3c-4nnc3C3(C(F)(F)F)CCC3)n2)ccn1 | pIC50 | ≥ 8.30 |
| C[C@H]1Cn2cc(-c3cc(Nc4ccnn4C)ncc3Cl)cc2-c2nnc(C(F)(F)n3cc(F)cn3)n21 | pIC50 | ≥ 8.30 |
| Cc1cnc(Nc2ccnn2C)nc1-c1cc2n(c1)CCn1c-2nnc1C(F)(F)c1ccccc1Cl | pIC50 | ≥ 8.30 |

Quick one: pIC50 of Cc1cnc(Nc2ccnn2C)cc1-c1cc2n(c1)C[C@H](CF)n1c-2nnc1C(F)(F)c1cc(F)cc(F)c1 ?
8.00 to 8.30

Query: pIC50; subject: Cn1nccc1Nc1cc(-c2cc3n(c2)C(C(F)F)Cn2c-3nnc2C(F)(F)C(F)F)c(Cl)cn1 (stereo not shown)
8.00 to 8.30

Data request, read-out pIC50, for CCCn1nccc1Nc1ncc(C)c(-c2cc3n(c2)C[C@H](C)n2c-3nnc2C(F)(F)c2ccccc2F)n1
< 8.00
